EXPERIMENTAL SYSTEM: USP30 (Homo sapiens (Human))
EXPERIMENTAL ENDPOINT: IC50 (nM)

Example compounds with recorded IC50:
- COMPOUND: "CC(C)(C)NS(=O)(=O)c1ccc(NC(=O)[C@H](Cc2cccc(C#N)c2)NC(=O)C2CCCCC2)cc1 [Compound 19ad]"
  IC50 (nM): 41
- COMPOUND: "CC(C)(C)NS(=O)(=O)c1cccc2c(NC(=O)[C@H](Cc3ccccc3)NC(=O)C3CCCCC3)cccc12 [Compound 4c]"
  IC50 (nM): 125
- COMPOUND: "CC(C)(C)NS(=O)(=O)c1ccc(NC(=O)[C@H](Cc2cccnc2)NC(=O)c2ccc(F)cc2)cc1 [Compound 19n]"
  IC50 (nM): 16

1. COc1ccc(C[C@H](NC(=O)c2cccnc2)C(=O)Nc2ccc(S(=O)(=O)NC(C)(C)C)cc2)cc1 [Compound 19aa]
2. CC(C)(C)NS(=O)(=O)c1ccc(NC(=O)[C@H](Cc2ccccn2)NC(=O)c2ccc(F)cc2)cc1 [Compound 19o]
[in] Given the listed records, identify the one among 1 and 2 with higher IC50. Label of pick, please.
[out] 1

====

These records show IC50 for USP30 (Homo sapiens (Human), UniProt Q70CQ3).

Example compounds with recorded IC50:
- COMPOUND: "C[C@@H](O)[C@H](NC(=O)C1CCCCC1)C(=O)Nc1ccc(S(=O)(=O)NC(C)(C)C)cc1 [Compound 19i]"
  EXPERIMENTAL ENDPOINT: "IC50"
  MEASURED RESULT: "> 10 µM"
- COMPOUND: "Cc1cccc(C(=O)N[C@@H](Cc2ccccc2)C(=O)Nc2cccc3c(S(=O)(=O)NC(C)(C)C)cccc23)n1"
  EXPERIMENTAL ENDPOINT: "IC50"
  MEASURED RESULT: "> 10 µM"
- COMPOUND: "CC(C)(C)NS(=O)(=O)c1ccc(NC(=O)[C@H](CC2CCCCC2)NC(=O)c2cccc(C#N)c2)cc1 [Compound 14i]"
  EXPERIMENTAL ENDPOINT: "IC50"
  MEASURED RESULT: "> 10 µM"

For the next question, use this compound.
[in] Dear colleague, I am looking for the recorded IC50 of the following compound: CC(C)(C)NS(=O)(=O)c1ccc(NC(=O)[C@H](Cc2ccc(OC(F)(F)F)cc2)NC(=O)c2ccc(F)cc2)cc1 [Compound 19ae]
[out] 3.6 µM

====

EXPERIMENTAL SYSTEM: USP30 (Homo sapiens (Human), UniProt Q70CQ3)
Sequence (Q70CQ3 whole entry): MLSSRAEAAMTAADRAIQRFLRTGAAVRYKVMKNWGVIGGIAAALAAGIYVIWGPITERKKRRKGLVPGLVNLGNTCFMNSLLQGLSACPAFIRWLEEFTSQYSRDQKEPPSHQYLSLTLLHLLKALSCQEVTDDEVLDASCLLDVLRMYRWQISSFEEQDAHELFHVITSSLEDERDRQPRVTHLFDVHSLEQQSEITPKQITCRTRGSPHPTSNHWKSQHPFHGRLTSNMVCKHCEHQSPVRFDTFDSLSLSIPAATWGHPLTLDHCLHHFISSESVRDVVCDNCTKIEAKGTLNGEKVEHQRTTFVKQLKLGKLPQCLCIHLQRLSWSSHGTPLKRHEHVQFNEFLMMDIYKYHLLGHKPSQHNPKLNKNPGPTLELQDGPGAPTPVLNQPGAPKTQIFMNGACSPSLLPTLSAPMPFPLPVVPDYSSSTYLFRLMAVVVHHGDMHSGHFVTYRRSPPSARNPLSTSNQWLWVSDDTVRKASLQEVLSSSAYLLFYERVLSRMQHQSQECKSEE
pIC50: −log10 of the molar value.
EXPERIMENTAL ENDPOINT: pIC50

- COMPOUND: "COc1ccc(C[C@H](NC(=O)c2ccncc2)C(=O)Nc2ccc(S(=O)(=O)NC(C)(C)C)cc2)cc1 [Compound 19ab]"
  EXPERIMENTAL SYSTEM: "USP30 (Homo sapiens (Human), UniProt Q70CQ3)"
  EXPERIMENTAL ENDPOINT: "pIC50"
  MEASURED RESULT: 5.62
- COMPOUND: "CC(C)(C)NS(=O)(=O)c1ccc(NC(=O)[C@H](Cc2cccs2)NC(=O)c2ccccn2)cc1 [Compound 19s]"
  EXPERIMENTAL SYSTEM: "USP30 (Homo sapiens (Human), UniProt Q70CQ3)"
  EXPERIMENTAL ENDPOINT: "pIC50"
  MEASURED RESULT: 6.70

a. CC(C)(C)NS(=O)(=O)c1ccc(NC(=O)[C@H](Cc2ccccc2)NC(=O)c2ccccn2)cc1 [Compound 10h]
b. CC(C)(C)NS(=O)(=O)c1ccc(NC(=O)[C@H](CC2CCCCC2)NC(=O)c2ccccn2)cc1 [Compound 14j]
[in] Given the listed records, identify the one among a and b with higher pIC50. Label of pick, please.
[out] b
(b: 6.91, a: 6.60)

I. CC(C)(C)NS(=O)(=O)c1cccc2c(NC(=O)[C@H](Cc3ccccc3)NC(=O)c3cccs3)cccc12
II. CC(C)(C)NS(=O)(=O)c1ccc(NC(=O)[C@H](Cc2ccccc2)NC(=O)c2ccc(F)cc2)cc1 [Compound 10e]
III. CC(C)(C)NS(=O)(=O)c1ccc(NC(=O)[C@H](Cc2ccc(-c3ccccc3)cc2)NC(=O)c2ccc(F)cc2)cc1 [Compound 19l]
[in] Put the entries in order of pIC50, starting with the largest number. Please list each label once, in the requested order.
[out] II, III, I
(II: 7.77, III: 6.77, I: 5.74)

P. CC(C)(C)NS(=O)(=O)c1ccc(NC(=O)[C@H](Cc2ccccc2)NC(=O)C2CCCCC2)cc1F [Compound 19m]
Q. COc1ccc(C(=O)N[C@@H](Cc2cccs2)C(=O)Nc2ccc(S(=O)(=O)NC(C)(C)C)cc2)nc1 [Compound 19t]
[in] Given the listed records, identify the one among P and Q with higher pIC50. Label of pick, please.
[out] P
(P: 6.56, Q: 5.98)

A. CC(C)(C)NS(=O)(=O)c1ccc(NC(=O)[C@H](Cc2cccs2)NC(=O)c2ccc(F)cc2)cc1 [Compound 19g]
B. CC(C)(C)NS(=O)(=O)c1cccc2c(NC(=O)[C@H](Cc3ccc(F)cc3)NC(=O)c3ccccc3)cccc12
[in] Given the listed records, identify the one among A and B with higher pIC50. Label of pick, please.
[out] A
(A: 7.72, B: 6.82)
